Values were extracted from patent US9346798B2.

target: Nav 1.7 (Homo sapiens (Human), UniProt Q15858); assay: Nav 1.7 in vitro PX assay, PatchXpress whole cell voltage clamp; assay type: cell-based; details: HEK293; values marked *; 4.9 μM; HEK 293 cells stably transfected with human Nav1.7; read-out: Nav 1.7 PX percent inhibition at 4.9 μM
Sequence (Q15858 whole entry): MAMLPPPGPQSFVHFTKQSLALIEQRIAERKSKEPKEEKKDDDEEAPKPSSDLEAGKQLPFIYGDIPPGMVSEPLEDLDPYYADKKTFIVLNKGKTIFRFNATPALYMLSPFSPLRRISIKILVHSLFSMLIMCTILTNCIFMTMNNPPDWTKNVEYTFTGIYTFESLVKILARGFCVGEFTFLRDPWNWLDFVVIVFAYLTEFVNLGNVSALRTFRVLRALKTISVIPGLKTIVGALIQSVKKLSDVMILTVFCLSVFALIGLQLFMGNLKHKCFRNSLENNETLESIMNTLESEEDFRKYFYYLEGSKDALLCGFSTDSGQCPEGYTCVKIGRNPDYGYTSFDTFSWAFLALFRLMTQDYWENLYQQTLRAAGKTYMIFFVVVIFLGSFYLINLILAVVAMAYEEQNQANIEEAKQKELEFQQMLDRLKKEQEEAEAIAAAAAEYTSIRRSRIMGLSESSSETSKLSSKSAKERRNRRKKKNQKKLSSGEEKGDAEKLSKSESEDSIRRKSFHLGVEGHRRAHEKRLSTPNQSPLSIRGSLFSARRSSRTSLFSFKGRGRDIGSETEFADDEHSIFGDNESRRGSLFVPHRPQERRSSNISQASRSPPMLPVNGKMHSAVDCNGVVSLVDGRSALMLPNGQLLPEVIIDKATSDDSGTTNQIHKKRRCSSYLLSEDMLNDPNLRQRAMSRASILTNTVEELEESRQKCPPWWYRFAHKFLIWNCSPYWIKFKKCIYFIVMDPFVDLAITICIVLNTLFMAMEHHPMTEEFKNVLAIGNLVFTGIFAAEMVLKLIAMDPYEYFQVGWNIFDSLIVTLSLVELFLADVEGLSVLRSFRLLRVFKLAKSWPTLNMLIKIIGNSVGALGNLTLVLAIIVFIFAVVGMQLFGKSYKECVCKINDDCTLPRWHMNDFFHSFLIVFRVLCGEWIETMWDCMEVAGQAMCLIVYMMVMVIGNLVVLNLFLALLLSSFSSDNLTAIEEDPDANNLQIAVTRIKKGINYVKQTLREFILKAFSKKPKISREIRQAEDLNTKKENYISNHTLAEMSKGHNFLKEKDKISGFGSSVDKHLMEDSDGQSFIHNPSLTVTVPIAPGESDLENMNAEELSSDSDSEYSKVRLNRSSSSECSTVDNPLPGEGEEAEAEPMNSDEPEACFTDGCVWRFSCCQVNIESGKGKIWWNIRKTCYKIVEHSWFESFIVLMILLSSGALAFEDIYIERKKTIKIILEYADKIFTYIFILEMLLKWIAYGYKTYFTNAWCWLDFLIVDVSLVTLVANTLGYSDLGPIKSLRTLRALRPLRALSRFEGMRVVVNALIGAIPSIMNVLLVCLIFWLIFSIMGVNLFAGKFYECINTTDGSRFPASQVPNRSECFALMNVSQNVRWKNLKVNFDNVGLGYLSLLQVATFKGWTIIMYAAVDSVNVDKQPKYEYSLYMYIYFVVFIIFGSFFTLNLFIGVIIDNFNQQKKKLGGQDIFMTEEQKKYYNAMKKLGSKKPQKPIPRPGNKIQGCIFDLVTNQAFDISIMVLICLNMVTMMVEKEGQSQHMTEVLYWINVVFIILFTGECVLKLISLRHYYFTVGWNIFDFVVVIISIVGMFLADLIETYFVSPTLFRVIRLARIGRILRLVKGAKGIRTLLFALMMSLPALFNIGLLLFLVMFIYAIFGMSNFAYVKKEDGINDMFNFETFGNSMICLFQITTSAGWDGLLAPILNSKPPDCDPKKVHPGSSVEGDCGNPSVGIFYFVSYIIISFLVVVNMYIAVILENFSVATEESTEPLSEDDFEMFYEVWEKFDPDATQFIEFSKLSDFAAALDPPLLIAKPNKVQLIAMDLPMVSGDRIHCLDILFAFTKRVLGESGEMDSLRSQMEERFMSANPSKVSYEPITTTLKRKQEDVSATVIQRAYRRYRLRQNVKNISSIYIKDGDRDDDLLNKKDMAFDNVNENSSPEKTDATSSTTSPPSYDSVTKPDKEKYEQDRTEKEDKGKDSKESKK
In this section, each of the compounds is paired with its reported inhibition at 4.9 µM.
Only the number, expressed in %, is required.

# count of solved cases: 6
{"compound": "N#Cc1cccc(Cl)c1N1CCOc2cc(S(=O)(=O)Nc3nccs3)ccc21", "unitName": "%", "inhibition at 4.9 µM": 33.9}
{"compound": "COc1cc(C#N)ccc1CN1CCOc2cc(S(=O)(=O)Nc3nccs3)ccc21", "unitName": "%", "inhibition at 4.9 µM": 26.2}
{"compound": "O=S(=O)(Nc1nccs1)c1ccc2c(c1)OCCN2c1ccc2ncccc2c1 [Example 66, 2,2,2-Trifluoroacetate]", "unitName": "%", "inhibition at 4.9 µM": 22.8}
{"compound": "CC(C)(O)COc1ccccc1N1CCOc2cc(S(=O)(=O)Nc3nccs3)ccc21", "unitName": "%", "inhibition at 4.9 µM": 27}
{"compound": "COCC1CN(c2ccc(Cl)cc2C#N)c2ccc(S(=O)(=O)Nc3nccs3)cc2O1 (stereo not shown)", "unitName": "%", "inhibition at 4.9 µM": 27.8}
{"compound": "O=S(=O)(Nc1nccs1)c1ccc2c(c1)OCCN2Cc1c[nH]c2cccnc12", "unitName": "%", "inhibition at 4.9 µM": 33.8}

inhibition at 4.9 µM reading for Cc1ccc(C#N)c(N2CCOc3cc(S(=O)(=O)Nc4nccs4)ccc32)n1 : 22.6

* * *

biological target: Nav 1.7 (Homo sapiens (Human)); test: Nav 1.7 in vitro assay, IonWorks Quattro (IWQ) population patch-clamp; assay type: cell-based; details: HEK 293 cells stably transfected with Nav 1.7; 26th pulse to -20 mV
Items are presented alongside their recorded log10(IC50).
Friendly reminder: values = log10 of IC50, unit nM.

Here are 7 molecules together with their reported answers.
{"molecule": "O=S(=O)(Nc1nccs1)c1ccc2c(c1)OCCN2Cc1c[nH]c2cccnc12", "resultNumber": 3.54}
{"molecule": "O=S(=O)(Nc1nccs1)c1ccc2c(c1)OCCN2c1ccccc1-c1ccncc1", "resultNumber": 2.03}
{"molecule": "N#Cc1cc(C(F)(F)F)ccc1N1CCOc2cc(S(=O)(=O)Nc3ccno3)ccc21", "resultNumber": 3.56}
{"molecule": "Cc1ccc2cnccc2c1N1CCOc2cc(S(=O)(=O)Nc3nccs3)ccc21 [Example 73, 2,2,2-Trifluoroacetate]", "resultNumber": 3.88}
{"molecule": "O=S(=O)(Nc1cscn1)c1ccc2c(c1)OCCN2c1ccc(C(F)(F)F)cc1Br", "resultNumber": 2.83}
{"molecule": "COc1nc(C(F)(F)F)ccc1N1CCOc2cc(S(=O)(=O)Nc3nccs3)ccc21", "resultNumber": 1.84}
{"molecule": "O=S(=O)(Nc1ncns1)c1ccc2c(c1)OCCN2c1ccc(C(F)(F)F)cc1C1=CCOCC1", "resultNumber": 1.09}

Now examine the next entry.
// recorded log10(IC50) for C[C@@H]1COc2cc(S(=O)(=O)Nc3nccs3)ccc2N1c1ccc(C(F)(F)F)cc1C#N (single isomer, unassigned) : 2.32

* * *

Below, each entry is listed alongside its reported inhibition at 4.9 µM.
molecular target: Nav 1.7 (Homo sapiens (Human), UniProt Q15858); test: Nav 1.7 in vitro PX assay, PatchXpress whole cell voltage clamp; type: cell-based; conditions: HEK293; values marked *; 4.9 μM; HEK 293 cells stably transfected with human Nav1.7; read-out: Nav 1.7 PX percent inhibition at 4.9 μM
// note: answer is a bare numeric in %

Observe how each entry below is paired with its result.
{"compound": "Cc1cncc(C)c1N1CCOc2cc(S(=O)(=O)Nc3nccs3)ccc21 [Example 133]", "unitName": "%", "inhibition at 4.9 µM": 20.2}
{"compound": "CC(=O)N1CCN(c2ccc(C(F)(F)F)cc2Cl)c2ccc(S(=O)(=O)Nc3ncns3)cc21 [Example 20]", "unitName": "%", "inhibition at 4.9 µM": 33.2}
{"compound": "O=S(=O)(Nc1nccs1)c1ccc2c(c1)OCCN2c1ncc(F)cc1F [Example 136]", "unitName": "%", "inhibition at 4.9 µM": 27.4}
{"compound": "Cc1cc(F)cnc1N1CCOc2cc(S(=O)(=O)Nc3nccs3)ccc21 [Example 110]", "unitName": "%", "inhibition at 4.9 µM": 39.2}
{"compound": "O=S(=O)(Nc1nccs1)c1ccc2c(c1)OCCN2c1ccc2nccnc2c1 [Example 69, 2,2,2-Trifluoroacetate]", "unitName": "%", "inhibition at 4.9 µM": 33.9}
{"compound": "O=S(=O)(Nc1ccc(F)cn1)c1ccc2c(c1)OCCN2c1ccc(C(F)(F)F)cc1Cl [Example 17]", "unitName": "%", "inhibition at 4.9 µM": 24.1}

Summary for this compound, O=C(Oc1ccc([N+](=O)[O-])cc1)N1CCOc2cc(S(=O)(=O)Nc3nccs3)ccc21 [Example 197] : inhibition at 4.9 µM is 27.8

Value of measured inhibition at 4.9 µM for the entry O=S(=O)(Nc1ccccn1)c1ccc2c(c1)OCCN2c1ccc(C(F)(F)F)cc1Br [Example 60] : 24.4

* * *

Reported pIC50 values for a set of molecules
molecular target: UniProtKB Q15858; assay: Nav 1.7 in vitro assay, IonWorks Quattro (IWQ) population patch-clamp; format: cell-based; conditions: HEK 293 cells stably transfected with Nav 1.7; 26th pulse to -20 mV
Remember the convention: pIC50 equals -log10 of concentration in molar.

Record excerpt, results attached:
{"molecule": "O=S(=O)(Nc1nccs1)c1ccc2c(c1)OCCN2c1ccc2nccnc2c1 [Example 69, 2,2,2-Trifluoroacetate]", "pIC50": 5.42}
{"molecule": "O=S(=O)(Nc1ccncn1)c1ccc2c(c1)OCCN2c1ccc(C(F)(F)F)cc1Cl", "pIC50": 7.14}
{"molecule": "N#Cc1ccc(Cl)cc1N1CCOc2cc(S(=O)(=O)Nc3nccs3)ccc21", "pIC50": 7.28}
{"molecule": "Cn1nccc1-c1ccccc1N1CCOc2cc(S(=O)(=O)Nc3nccs3)ccc21", "pIC50": 7.18}
{"molecule": "O=S(=O)(Nc1ncns1)c1ccc2c(c1)OCCN2c1ccc(C(F)(F)F)cc1Cl", "pIC50": 8.11}
{"molecule": "N#Cc1cc(-c2ccccc2F)ccc1N1CCOc2cc(S(=O)(=O)Nc3nccs3)ccc21", "pIC50": 6.20}

Consider O=S(=O)(Nc1ncns1)c1ccc2c(c1)OCCN2c1ccc(C(F)(F)F)cc1Br . Its measured pIC50 is 7.95

Form field pIC50, entry COc1ccc(C#N)c(N2CCOc3cc(S(=O)(=O)Nc4nccs4)ccc32)c1 : 6.41

The recorded pIC50 for entry N#Cc1cc(C(F)(F)F)ccc1N1CCOc2c1ccc(S(=O)(=O)Nc1nccs1)c2F equals 7.47

Lab note: measured pIC50 of N#Cc1ccc(N2CCOc3cc(S(=O)(=O)Nc4nccs4)ccc32)cc1OC(F)(F)F was 6.19

* * *

target: Nav 1.7 (Homo sapiens (Human), UniProt Q15858); assay: Nav 1.7 in vitro PX assay, PatchXpress whole cell voltage clamp; assay type: cell-based; conditions: HEK 293 cells stably transfected with human Nav1.7; partially inactivated state (20 to 50% inactivation)
assayReadout: pIC50
Please treat pIC50 as minus the base-10 logarithm of the molar concentration.

{"molecule": "O=S(=O)(Nc1ncco1)c1ccc2c(c1)OCCN2c1ccc(C(F)(F)F)cc1Cl [Example 24]", "pIC50": 5.37}
{"molecule": "CCOc1ccc(N2CCOc3cc(S(=O)(=O)Nc4nccs4)ccc32)cn1 [Example 138]", "pIC50": 4.94}
{"molecule": "COc1cc(C(F)(F)F)ccc1N1C(=O)C(C)(C)Oc2cc(S(=O)(=O)Nc3nccs3)ccc21 [Example 266]", "pIC50": 5.25}
{"molecule": "O=S(=O)(Nc1ncns1)c1ccc2c(c1)OCCN2c1ccc(C(F)(F)F)cc1-c1cccnc1 [Example 21]", "pIC50": 6.79}
{"molecule": "Cc1cc(OC(F)F)cnc1N1CCOc2cc(S(=O)(=O)Nc3nccs3)ccc21 [Example 146]", "pIC50": 5.33}

Measured pIC50 (Nav 1.7 (Homo sapiens (Human), UniProt Q15858)), entry COc1cc(C)c(N2CCOc3cc(S(=O)(=O)Nc4nccs4)ccc32)cn1 [Example 137] : 4.66

Value (pIC50, Nav 1.7 (Homo sapiens (Human), UniProt Q15858)) for record Cn1nccc1-c1cc(C(F)(F)F)ccc1N1CCOc2cc(S(=O)(=O)Nc3ncns3)ccc21 [Example 3] = 7.24

Lab note: molecule N#Cc1ccc(N2CCOc3cc(S(=O)(=O)Nc4nccs4)ccc32)cc1 [Example 76, 2,2,2-Trifluoroacetate] tested on Nav 1.7 (Homo sapiens (Human), UniProt Q15858); recorded pIC50 was 5.03
